Just for reference, ChEMBL document CHEMBL1926502 is where these values come from.

Target: UniProtKB O76074
Experiment: Inhibition of human PDE5 isolated from corpus cavernosum after 30 to 60 mins by scintillation counting method
Property: IC50 (nM)
Record the value in nM, omitting the unit from your answer.

Example cases with answers are listed next.
>>> numeric_result("CCOc1ncc(S(=O)(=O)N2CCN(CC)CC2)cc1-c1nc2c3n(nc2c(=O)[nH]1)CCCC3C (single isomer, unassigned; (+))")
3.35
>>> numeric_result("CCOc1ncc(S(=O)(=O)N2CCN(CC)CC2)cc1-c1nc2c3n(nc2c(=O)[nH]1)CCCC3")
10.8
>>> numeric_result("CCOc1ncc(S(=O)(=O)N2CCN(CC)CC2)cc1-c1nc2c(CC)n(C3CNC3)nc2c(=O)[nH]1")
15.8
>>> numeric_result("CCCCOc1ncc(S(=O)(=O)N2CCN(CC)CC2)cc1-c1nc2c(CC)n(C3CCN(S(C)(=O)=O)CC3)nc2c(=O)[nH]1")
0.31

Supply measured IC50 of CCOc1ncc(S(=O)(=O)N2CCN(CC)CC2)cc1-c1nc2c(CC)n(CCOC)nc2c(=O)[nH]1 in your reply.
1.23

Give reported IC50 value for CCOc1ncc(S(=O)(=O)N2CCN(CC)CC2)cc1-c1nc2c3n(nc2c(=O)[nH]1)CCCC3C (single isomer, unassigned; (-))
3.7

Let me know recorded IC50 for CCc1c2nc(-c3cc(S(=O)(=O)N4CCN(CC)CC4)cnc3OCCOC)[nH]c(=O)c2nn1CCOC , thanks.
1.53
